Test system: MARIMO;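 further: after 48 h exposure read by CellTiter-Glo luminescence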
Test: cell viability relative to vehicle control; higher = less cytotoxic
Settings: 10 µM; SRSF2 genotype: SRSF2 wt/wt
Counter-ions that a name gives are not always drawn.
Reported cell viability values are given for each entry in this list.
Remember to follow the number with its unit.

>>> recorded_value("CCC(=O)NCC[C@@H]1CCc2ccc3c(c21)CCO3 [Ramelteon]")
"101%"

Prompt: Give its cell viability value. Item: CN[C@H]1CC[C@@H](c2ccc(Cl)c(Cl)c2)c2ccccc21 [Sertraline HCl]
Response: 48%

Prompt: # lookup: cell viability of N/C(=N\N=C\c1ccc(Cl)cc1)N/N=C/c1ccc(Cl)cc1 [Robenidine Hydrochoride]
Response: 67.8%

Prompt: Data request, read-out cell viability, for OCC(O)C(O)C(O)C(O)CO (stereo unspecified) [Allitol]
Response: 101%

Prompt: Which cell viability is listed for CCCCCCCCCCCC(=O)O [Lauric Acid] ?
Response: 101%

Prompt: Form field: reported cell viability of "COc1ccccc1N1CCN(CCN(C(=O)C2CCCCC2)c2ccccn2)CC1"
Response: 73%
